# System Tested: Thymidylate kinase (Mycobacterium tuberculosis)
# Sequence (P9WKE1 whole entry): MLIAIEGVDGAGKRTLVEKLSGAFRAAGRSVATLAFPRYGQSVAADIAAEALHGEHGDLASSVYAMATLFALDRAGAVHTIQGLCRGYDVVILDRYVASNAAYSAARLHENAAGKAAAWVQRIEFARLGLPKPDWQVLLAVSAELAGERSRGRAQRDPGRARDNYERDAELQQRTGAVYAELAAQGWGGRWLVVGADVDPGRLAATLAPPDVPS
So I've got a bunch of compounds here, and I need their pIC50 values.
Bear in mind: pIC50 is minus log10 of a mol/L concentration; give just that figure.

Req: # query: pIC50 of entry Cc1cn(C2CCN(Cc3cccc(OC4CCCC4)c3)CC2)c(=O)[nH]c1=O
Resp: 4.49

Req: Item Cc1cn(C2CCN(Cc3cccc(Oc4ccc(Cl)c(Cl)c4)c3)CC2)c(=O)[nH]c1=O has what recorded pIC50?
Resp: 5.96

Req: Bench note: what pIC50 did Cc1cn(C2CCN(Cc3cncc(Oc4cccc(Cl)c4)c3)CC2)c(=O)[nH]c1=O show?
Resp: 6.11

Req: Param item = Cc1cn(C2CCN(Cc3cccc(Oc4cc(F)cc(F)c4)c3)CC2)c(=O)[nH]c1=O ; retrieve measured pIC50.
Resp: 5.55

Req: Using the record for Cc1cn(C2CCN(Cc3cccc(Oc4ccncc4)c3)CC2)c(=O)[nH]c1=O , report its pIC50.
Resp: 4.70

Req: GET /values?readout=pIC50&item= Cc1cn(C2CCN(Cc3cccc(Oc4cccc(OC(F)(F)F)c4)c3)CC2)c(=O)[nH]c1=O
Resp: 6.19

Req: Which value of pIC50 has been reported for Cc1cn(C2CCN(Cc3cccc(Oc4ccc(F)c(F)c4)c3)CC2)c(=O)[nH]c1=O in the records?
Resp: 5.59

Req: Using the record for Cc1cn(C2CCN(Cc3cccc(Oc4ccc(O)cc4)n3)CC2)c(=O)[nH]c1=O , report its pIC50.
Resp: 5.96

Req: Which pIC50 value belongs to Cc1cn(C2CCN(Cc3cccc(Oc4cccc(F)c4)c3)CC2)c(=O)[nH]c1=O ?
Resp: 5.54

----------
# System Tested: Thymidylate kinase (Mycobacterium tuberculosis, UniProt P9WKE1)
# Sequence (P9WKE1 whole entry): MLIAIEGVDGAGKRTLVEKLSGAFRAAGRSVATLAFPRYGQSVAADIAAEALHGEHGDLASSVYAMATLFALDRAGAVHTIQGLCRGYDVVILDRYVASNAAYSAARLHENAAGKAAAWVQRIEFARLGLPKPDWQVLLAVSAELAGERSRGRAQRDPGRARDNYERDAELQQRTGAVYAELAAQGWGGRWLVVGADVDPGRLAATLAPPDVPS
Attribute Measured: IC50

Req: Quick check: IC50 of Cc1cn(C2CCN(Cc3cncc(Oc4cccc(OC(F)(F)F)c4)c3)CC2)c(=O)[nH]c1=O ?
Resp: 810 nM

Req: Consider the compound Cc1cn(C2CCN(Cc3cccc(Oc4cc(Cl)cc(Cl)c4)c3)CC2)c(=O)[nH]c1=O and give its measured IC50.
Resp: 120 nM

Req: Requested read-out: IC50. Entry: Cc1cn(C2CCN(Cc3cncc(Oc4cc(Cl)cc(Cl)c4)c3)CC2)c(=O)[nH]c1=O
Resp: 220 nM

Req: Quick one: IC50 of Cc1cn(C2CCN(Cc3cccc(Oc4ccccc4)c3)CC2)c(=O)[nH]c1=O ?
Resp: 6100 nM
